Listed here are sequences together with their documented PBM binding z-score.
- System: VDR homodimer (NR concentration 270 nM)
- protocol text: PBM binding z-score (relative to random genomic background probes); higher = stronger binding; sequences stand for … in GC…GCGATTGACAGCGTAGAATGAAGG
property name: PBM binding z-score

1) TAGCCTAGATCATGGGCCAGTATACCACGCGAAC	-0.532
2) CCTAGTTGGTCAAGGTCACAGACGCTATAGGTAC	3.55
3) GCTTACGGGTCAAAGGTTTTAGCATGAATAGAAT	1.41
4) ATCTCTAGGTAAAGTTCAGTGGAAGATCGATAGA	2.23
5) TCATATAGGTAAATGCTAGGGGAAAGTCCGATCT	0.491
6) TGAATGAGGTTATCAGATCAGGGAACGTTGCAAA	0.273
7) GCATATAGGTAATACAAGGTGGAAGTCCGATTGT	-0.109
8) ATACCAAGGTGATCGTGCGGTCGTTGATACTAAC	0.302
9) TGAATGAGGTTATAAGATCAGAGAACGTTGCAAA	0.234
10) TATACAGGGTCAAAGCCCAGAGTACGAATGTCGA	2.85
11) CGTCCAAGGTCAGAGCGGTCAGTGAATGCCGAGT	2.42
12) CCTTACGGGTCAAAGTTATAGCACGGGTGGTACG	1.46
13) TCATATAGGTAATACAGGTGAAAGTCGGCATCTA	-0.0243
14) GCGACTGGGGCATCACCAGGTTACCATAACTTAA	-0.267
15) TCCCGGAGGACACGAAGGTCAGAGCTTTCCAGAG	1.11
16) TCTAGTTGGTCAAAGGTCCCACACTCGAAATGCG	0.39
17) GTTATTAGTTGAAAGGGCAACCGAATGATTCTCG	1.55
18) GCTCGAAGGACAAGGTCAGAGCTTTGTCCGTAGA	0.387
19) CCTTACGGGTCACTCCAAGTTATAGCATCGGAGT	1.05
20) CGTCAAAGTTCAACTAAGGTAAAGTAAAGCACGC	3.59
21) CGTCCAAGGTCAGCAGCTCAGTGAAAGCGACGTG	0.868
22) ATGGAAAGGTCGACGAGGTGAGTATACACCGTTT	0.927
23) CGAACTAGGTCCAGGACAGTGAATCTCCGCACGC	0.133
24) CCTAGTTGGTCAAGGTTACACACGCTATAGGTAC	1.42
25) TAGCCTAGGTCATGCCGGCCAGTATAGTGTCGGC	0.14
26) GCGACTGGGGCAAAGCGGGTTACCATAAGGTTGG	-0.483
27) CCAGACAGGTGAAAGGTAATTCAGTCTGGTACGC	-0.314
28) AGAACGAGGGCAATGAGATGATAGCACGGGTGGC	0.718
29) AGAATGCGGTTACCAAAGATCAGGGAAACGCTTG	-1.02
30) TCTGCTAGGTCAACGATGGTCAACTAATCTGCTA	0.125
31) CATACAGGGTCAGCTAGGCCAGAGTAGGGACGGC	1.32
32) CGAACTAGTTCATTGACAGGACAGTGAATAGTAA	2.01
33) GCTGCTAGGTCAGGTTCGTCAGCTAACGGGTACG	2.58
34) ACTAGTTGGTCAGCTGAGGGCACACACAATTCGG	0.929
35) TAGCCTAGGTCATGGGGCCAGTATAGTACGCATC	1.05
36) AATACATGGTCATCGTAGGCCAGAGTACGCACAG	0.322
37) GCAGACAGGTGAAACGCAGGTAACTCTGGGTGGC	-0.811
38) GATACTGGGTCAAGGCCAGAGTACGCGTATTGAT	0.679
39) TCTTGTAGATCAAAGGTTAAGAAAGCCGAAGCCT	-0.0957
40) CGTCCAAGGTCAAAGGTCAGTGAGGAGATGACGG	4.41
41) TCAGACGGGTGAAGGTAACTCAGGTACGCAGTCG	-0.187
42) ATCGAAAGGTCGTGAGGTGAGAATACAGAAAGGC	0.87
43) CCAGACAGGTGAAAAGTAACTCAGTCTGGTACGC	-0.225
